System: H3255
TEST_NAME: relative viability (nuclei count vs DMSO), 5 days (fraction); higher = more cells survive
RUN_CONDITIONS: first compound 0.04 µM
Cut-off 0.5 on relative viability: below means Criterion met, at or above means Criterion not met.

Quick check: relative viability of C[C@@H]1CN(CC(=O)Nc2ccc3c(c2)Cc2cccc(-c4cc(=O)cc(N5CCOCC5)o4)c2S3)C[C@H](C)O1 + Cc1cc(Nc2cc(N3CCN(C)CC3)nc(Sc3ccc(NC(=O)C4CC4)cc3)n2)n[nH]1 [Tozasertib] (partner 0.1 µM) under 0.5?
Criterion not met

Next up: Clc1ccc(Nc2nnc(Cc3ccncc3)c3ccccc23)cc1 [Vatalanib] + Nc1ncn([C@H]2C[C@H](O)[C@@H](CO)O2)c(=O)n1 [Decitabine] (partner 2 µM)
Criterion not met

Next up: Clc1ccc(Nc2nnc(Cc3ccncc3)c3ccccc23)cc1 [Vatalanib] + C[C@@H](Oc1cc(-c2cnn(C3CCNCC3)c2)cnc1N)c1c(Cl)ccc(F)c1Cl [Crizotinib] (partner 1 µM)
Criterion not met

Next up: COc1cc(N2CCC(C(N)=O)CC2)ccc1Nc1nc(N)c(Cl)c(Nc2ccccc2S(=O)(=O)C(C)C)n1 [HG-5-88-01] + NC(=O)Nc1cc(-c2cccc(F)c2)sc1C(=O)N[C@H]1CCCNC1 [AZD7762] (partner 0.2 µM)
Criterion not met

Next up: Clc1ccc(Nc2nnc(Cc3ccncc3)c3ccccc23)cc1 [Vatalanib] + CS(=O)(=O)N1CCN(Cc2cc3nc(-c4cccc5[nH]ncc45)nc(N4CCOCC4)c3s2)CC1 [Pictilisib] (partner 1 µM)
Criterion met

Next up: Clc1ccc(Nc2nnc(Cc3ccncc3)c3ccccc23)cc1 [Vatalanib] + O=C(c1cc(Cc2n[nH]c(=O)c3ccccc23)ccc1F)N1CCN(C(=O)C2CC2)CC1 [Olaparib] (partner 8 µM)
Criterion not met

Next up: C[C@@H]1CN(CC(=O)Nc2ccc3c(c2)Cc2cccc(-c4cc(=O)cc(N5CCOCC5)o4)c2S3)C[C@H](C)O1 + CC1(C)CCC(c2ccc(Cl)cc2)=C(CN2CCN(c3ccc(C(=O)NS(=O)(=O)c4ccc(N[C@H](CCN5CCOCC5)CSc5ccccc5)c(S(=O)(=O)C(F)(F)F)c4)cc3)CC2)C1 [Navitoclax] (partner 0.5 µM)
Criterion met

Next up: C[C@@H]1CN(CC(=O)Nc2ccc3c(c2)Cc2cccc(-c4cc(=O)cc(N5CCOCC5)o4)c2S3)C[C@H](C)O1 + Cc1nc(NC(=O)N2CCC[C@H]2C(N)=O)sc1-c1ccnc(C(C)(C)C(F)(F)F)c1 [Alpelisib] (partner 2 µM)
Criterion not met

====

Tested on: NCI-H1395
TEST_NAME: relative viability (nuclei count vs DMSO), 5 days (fraction); higher = more cells survive
RUN_CONDITIONS: first compound 0.4 µM
ENDPOINT_NAME: relative viability
Numbers only.

Examples from the recorded data:
COMPOUND	DATA_VALUE
C[C@@H]1CN(CC(=O)Nc2ccc3c(c2)Cc2cccc(-c4cc(=O)cc(N5CCOCC5)o4)c2S3)C[C@H](C)O1 + CCNC(=O)c1noc(-c2cc(C(C)C)c(O)cc2O)c1-c1ccc(CN2CCOCC2)cc1 [Luminespib] (partner 0.01 µM)	0.69
C[C@@H]1CN(CC(=O)Nc2ccc3c(c2)Cc2cccc(-c4cc(=O)cc(N5CCOCC5)o4)c2S3)C[C@H](C)O1 + Nc1ncn([C@H]2C[C@H](O)[C@@H](CO)O2)c(=O)n1 [Decitabine] (partner 2 µM)	0.653
Clc1ccc(Nc2nnc(Cc3ccncc3)c3ccccc23)cc1 [Vatalanib] + CC1(C)CCC(c2ccc(Cl)cc2)=C(CN2CCN(c3ccc(C(=O)NS(=O)(=O)c4ccc(N[C@H](CCN5CCOCC5)CSc5ccccc5)c(S(=O)(=O)C(F)(F)F)c4)cc3)CC2)C1 [Navitoclax] (partner 0.5 µM)	1.37

Recall the recorded relative viability for COc1cc(N2CCC(C(N)=O)CC2)ccc1Nc1nc(N)c(Cl)c(Nc2ccccc2S(=O)(=O)C(C)C)n1 [HG-5-88-01] + C[C@]1(O)C[C@@H](c2nc(-c3ccc4ccc(-c5ccccc5)nc4c3)c3c(N)nccn32)C1 [Linsitinib] (partner 1 µM) with NCI-H1395 and state it.
1.07

====

Test system: NCI-H1792
TEST_NAME: relative viability (nuclei count vs DMSO), 5 days (fraction); higher = more cells survive
RUN_CONDITIONS: first compound 0.3162 µM
ENDPOINT_NAME: relative viability
Numbers only.

Examples from the recorded data:
COMPOUND	DATA_VALUE
CC(C)Oc1cc(Nc2nc(N[C@@H](C)c3ccc(F)cn3)ncc2Cl)n[nH]1 [AZ23] + CS(=O)(=O)CCNCc1ccc(-c2ccc3ncnc(Nc4ccc(OCc5cccc(F)c5)c(Cl)c4)c3c2)o1 [Lapatinib] (partner 2 µM)	0.995
CC(C)Oc1cc(Nc2nc(N[C@@H](C)c3ccc(F)cn3)ncc2Cl)n[nH]1 [AZ23] + Nc1ncn([C@H]2C[C@H](O)[C@@H](CO)O2)c(=O)n1 [Decitabine] (partner 2 µM)	0.48
CC(C)Oc1cc(Nc2nc(N[C@@H](C)c3ccc(F)cn3)ncc2Cl)n[nH]1 [AZ23] + Cc1nc(Nc2ncc(C(=O)Nc3c(C)cccc3Cl)s2)cc(N2CCN(CCO)CC2)n1 [Dasatinib] (partner 0.075 µM)	0.672

Shift focus to the following entry.
What value of relative viability has been reported for the following compound? CC(C)Oc1cc(Nc2nc(N[C@@H](C)c3ccc(F)cn3)ncc2Cl)n[nH]1 [AZ23] + O=C(c1cc(Cc2n[nH]c(=O)c3ccccc23)ccc1F)N1CCN(C(=O)C2CC2)CC1 [Olaparib] (partner 8 µM)
0.373

====

System: NCI-H358
TEST_NAME: relative viability (nuclei count vs DMSO), 5 days (fraction); higher = more cells survive
RUN_CONDITIONS: first compound 4 µM
Exercise: state measured relative viability for each of the molecules provided.
Give bare numbers.

MOLECULE	relative viability
C[C@@H]1CN(CC(=O)Nc2ccc3c(c2)Cc2cccc(-c4cc(=O)cc(N5CCOCC5)o4)c2S3)C[C@H](C)O1 + CC(=O)Nc1cccc(-n2c(=O)n(C3CC3)c(=O)c3c(Nc4ccc(I)cc4F)n(C)c(=O)c(C)c32)c1 [Trametinib] (partner 0.02 µM)	0.112

Working through the 7 molecules below one at a time, give relative viability for each.
1. Clc1ccc(Nc2nnc(Cc3ccncc3)c3ccccc23)cc1 [Vatalanib] + CC(=O)c1c(C)c2cnc(Nc3ccc(N4CCNCC4)cn3)nc2n(C2CCCC2)c1=O [Palbociclib] (partner 0.5 µM)
2. C[C@@H]1CN(CC(=O)Nc2ccc3c(c2)Cc2cccc(-c4cc(=O)cc(N5CCOCC5)o4)c2S3)C[C@H](C)O1 + NC(=O)Nc1cc(-c2cccc(F)c2)sc1C(=O)N[C@H]1CCCNC1 [AZD7762] (partner 0.2 µM)
3. Clc1ccc(Nc2nnc(Cc3ccncc3)c3ccccc23)cc1 [Vatalanib] + Cc1nc(Nc2ncc(C(=O)Nc3c(C)cccc3Cl)s2)cc(N2CCN(CCO)CC2)n1 [Dasatinib] (partner 0.075 µM)
4. C[C@@H]1CN(CC(=O)Nc2ccc3c(c2)Cc2cccc(-c4cc(=O)cc(N5CCOCC5)o4)c2S3)C[C@H](C)O1 + O=C(c1cc(Cc2n[nH]c(=O)c3ccccc23)ccc1F)N1CCN(C(=O)C2CC2)CC1 [Olaparib] (partner 8 µM)
5. COc1cc(N2CCC(C(N)=O)CC2)ccc1Nc1nc(N)c(Cl)c(Nc2ccccc2S(=O)(=O)C(C)C)n1 [HG-5-88-01] + Cc1nc(Nc2ncc(C(=O)Nc3c(C)cccc3Cl)s2)cc(N2CCN(CCO)CC2)n1 [Dasatinib] (partner 0.075 µM)
6. COc1cc(N2CCC(C(N)=O)CC2)ccc1Nc1nc(N)c(Cl)c(Nc2ccccc2S(=O)(=O)C(C)C)n1 [HG-5-88-01] + Nc1ncn([C@H]2C[C@H](O)[C@@H](CO)O2)c(=O)n1 [Decitabine] (partner 2 µM)
7. COc1cc(N2CCC(C(N)=O)CC2)ccc1Nc1nc(N)c(Cl)c(Nc2ccccc2S(=O)(=O)C(C)C)n1 [HG-5-88-01] + N=C(N)NC(=N)NCCc1ccccc1 [Phenformin] (partner 250 µM)

0.136
0.365
0.169
0.178
0.138
0.125
0.139

====

System: NCI-H661
TEST_NAME: relative viability (nuclei count vs DMSO), 5 days (fraction); higher = more cells survive
RUN_CONDITIONS: first compound 2.53 µM
Cut-off 0.9 on relative viability: below means YES, at or above means NO.

The examples below pair each entry with its known result.
MOLECULE	DISCRETE_LABEL
CCCCCCCCCCCC1=C(O)C(=O)C=C(O)C1=O [Embelin] + C[C@@H](Oc1cc(-c2cnn(C3CCNCC3)c2)cnc1N)c1c(Cl)ccc(F)c1Cl [Crizotinib] (partner 1 µM)	YES
CCCCCCCCCCCC1=C(O)C(=O)C=C(O)C1=O [Embelin] + Cc1cc(Nc2cc(N3CCN(C)CC3)nc(Sc3ccc(NC(=O)C4CC4)cc3)n2)n[nH]1 [Tozasertib] (partner 0.1 µM)	YES
CCCCCCCCCCCC1=C(O)C(=O)C=C(O)C1=O [Embelin] + COc1cccc2cc(-c3nc([C@H]4CC[C@H](C(=O)O)CC4)n4ncnc(N)c34)[nH]c12 [OSI-027] (partner 0.5 µM)	YES

Quick check: relative viability of CCCCCCCCCCCC1=C(O)C(=O)C=C(O)C1=O [Embelin] + COc1cc2c(Oc3ccc(NC(=O)C4(C(=O)Nc5ccc(F)cc5)CC4)cc3F)ccnc2cc1OCCCN1CCOCC1 [Foretinib] (partner 0.25 µM) under 0.9?
NO

Next up: CCCCCCCCCCCC1=C(O)C(=O)C=C(O)C1=O [Embelin] + CC(C)C[C@H](NC(=O)[C@H](Cc1ccccc1)NC(=O)c1cnccn1)B(O)O [Bortezomib] (partner 0.002 µM)
NO
